# ASSAY_SYSTEM: hERG channel (Homo sapiens)
# Sequence (Q12809 whole entry): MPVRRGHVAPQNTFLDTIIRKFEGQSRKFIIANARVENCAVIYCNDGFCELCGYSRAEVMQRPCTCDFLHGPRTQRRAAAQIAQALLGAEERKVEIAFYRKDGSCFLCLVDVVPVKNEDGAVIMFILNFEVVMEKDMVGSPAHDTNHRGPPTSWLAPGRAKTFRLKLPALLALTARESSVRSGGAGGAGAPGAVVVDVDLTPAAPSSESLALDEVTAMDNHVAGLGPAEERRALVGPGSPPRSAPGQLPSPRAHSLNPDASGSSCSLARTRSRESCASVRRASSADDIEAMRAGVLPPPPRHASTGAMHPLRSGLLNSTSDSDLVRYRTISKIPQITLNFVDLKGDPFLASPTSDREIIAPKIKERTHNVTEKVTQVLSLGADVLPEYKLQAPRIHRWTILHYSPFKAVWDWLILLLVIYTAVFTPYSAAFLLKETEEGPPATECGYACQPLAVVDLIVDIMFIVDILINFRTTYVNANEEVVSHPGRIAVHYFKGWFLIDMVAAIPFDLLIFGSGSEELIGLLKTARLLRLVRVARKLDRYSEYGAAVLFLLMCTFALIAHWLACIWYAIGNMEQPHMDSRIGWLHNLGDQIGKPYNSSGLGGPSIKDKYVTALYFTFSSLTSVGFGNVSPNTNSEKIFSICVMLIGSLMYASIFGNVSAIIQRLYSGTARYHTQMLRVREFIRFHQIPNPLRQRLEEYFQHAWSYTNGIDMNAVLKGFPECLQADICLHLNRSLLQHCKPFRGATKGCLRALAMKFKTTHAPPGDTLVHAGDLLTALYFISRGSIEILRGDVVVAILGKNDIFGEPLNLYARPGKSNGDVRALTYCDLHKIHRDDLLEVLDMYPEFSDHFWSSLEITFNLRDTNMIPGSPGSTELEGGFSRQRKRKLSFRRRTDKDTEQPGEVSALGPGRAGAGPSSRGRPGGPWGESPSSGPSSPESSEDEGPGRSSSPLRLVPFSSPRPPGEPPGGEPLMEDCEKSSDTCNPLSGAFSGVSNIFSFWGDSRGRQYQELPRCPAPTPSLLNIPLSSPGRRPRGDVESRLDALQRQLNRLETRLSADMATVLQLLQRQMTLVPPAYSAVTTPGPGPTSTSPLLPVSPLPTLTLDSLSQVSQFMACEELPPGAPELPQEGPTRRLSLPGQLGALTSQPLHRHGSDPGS
# TEST_PROTOCOL: in vitro
PARAMETER_MEASURED: inhibition at 10 µM (%)

O=S(=O)(Nc1ccccc1)c1ccc(NC(=S)Nc2ccccc2)cc1 [LED209] = 4

====

# TEST_PROTOCOL: in vivo
# ASSAY_CONDITIONS: female, CD-1, mouse
PARAMETER_MEASURED: half-life

O=S(=O)(Nc1ccccc1)c1ccc(NC(=S)Nc2ccccc2)cc1 [LED209] = 0.667 to 1.67 h
